Experiment: Selectivity index, ratio of IC50 for cytotoxicity against mouse NIH3T3 cells to IC50 for cytotoxicity against rat C6 cells
Assay type: toxicity, cell-based
Conditions: NIH3T3 cells versus C6 cells, read-out: Ratio IC50
reportedEndpoint: selectivity ratio

INSERT INTO results (smilesdata, modifiersign, value) VALUES
  ('CN(C)CCCN1CCN(CC(=O)Nc2ccc(-c3nc4cc(Cl)ccc4o3)cc2)CC1', '=', 28.3),
  ('Cc1cc(-c2nc3cc(F)ccc3o2)ccc1NC(=O)CCl', '<', 0.11),
  ('Cc1cc(-c2nc3ccccc3o2)ccc1NC(=O)CN1CCN(CCCN(C)C)CC1', '=', 0.86),
  ('Cc1cc(-c2nc3cc(F)ccc3o2)ccc1NC(=O)CN1CCN(CCN(C)C)CC1', '=', 5.8),
  ('Cc1cc(-c2nc3ccccc3o2)ccc1NC(=O)CN1CCN(CCN(C)C)CC1', '=', 1.49),
  ('Cc1cc(-c2nc3ccccc3o2)ccc1NC(=O)CCl', '=', 0.45),
  ('Cc1ccc2oc(-c3ccc(NC(=O)CN4CCN(CCCN(C)C)CC4)cc3)nc2c1', '=', 14.6),
  ('CN(C)CCN1CCN(CC(=O)Nc2ccc(-c3nc4cc(F)ccc4o3)cc2)CC1', '=', 16.4),
  ('Cc1cc(-c2nc3cc(Cl)ccc3o2)ccc1NC(=O)CN1CCN(CCN(C)C)CC1', '=', 1.43),
  ('CN(C)CCN1CCN(CC(=O)Nc2ccc(-c3nc4ccccc4o3)cc2)CC1', '=', 5.11);

---

Assay: Selectivity index, ratio of IC50 for cytotoxicity against mouse NIH3T3 cells to IC50 for cytotoxicity against human A549 cells
Assay type: toxicity, cell-based
Conditions: NIH3T3 cells versus A549 cells, read-out: Ratio IC50
reportedEndpoint: selectivity ratio

INSERT INTO assay_data (smilesdata, reportedendpoint, value) VALUES
  ('O=C(CCl)Nc1ccc(-c2nc3cc(F)ccc3o2)cc1', 'selectivity ratio', 0.24),
  ('CN(C)CCN1CCN(CC(=O)Nc2ccc(-c3nc4cc(Cl)ccc4o3)cc2)CC1', 'selectivity ratio', 4.04),
  ('Cc1cc(-c2nc3cc(Cl)ccc3o2)ccc1NC(=O)CCl', 'selectivity ratio', 0.09),
  ('CN(C)CCCN1CCN(CC(=O)Nc2ccc(-c3nc4cc(Cl)ccc4o3)cc2)CC1', 'selectivity ratio', 5.96),
  ('Cc1ccc2oc(-c3ccc(NC(=O)CCl)cc3)nc2c1', 'selectivity ratio', 0.32),
  ('Cc1cc(-c2nc3cc(F)ccc3o2)ccc1NC(=O)CN1CCN(CCCN(C)C)CC1', 'selectivity ratio', 5.39),
  ('CN(C)CCN1CCN(CC(=O)Nc2ccc(-c3nc4cc(F)ccc4o3)cc2)CC1', 'selectivity ratio', 4.33),
  ('Cc1cc(-c2nc3ccccc3o2)ccc1NC(=O)CCl', 'selectivity ratio', 0.36),
  ('CN(C)CCCN1CCN(CC(=O)Nc2ccc(-c3nc4ccccc4o3)cc2)CC1', 'selectivity ratio', 0.91),
  ('CN(C)CCCN1CCN(CC(=O)Nc2ccc(-c3nc4cc(F)ccc4o3)cc2)CC1', 'selectivity ratio', 1.8),
  ('CN(C)CCN1CCN(CC(=O)Nc2ccc(-c3nc4ccccc4o3)cc2)CC1', 'selectivity ratio', 1.92),
  ('Cc1ccc2oc(-c3ccc(NC(=O)CN4CCN(CCN(C)C)CC4)cc3)nc2c1', 'selectivity ratio', 7.9),
  ('Cc1ccc2oc(-c3ccc(NC(=O)CN4CCN(CCCN(C)C)CC4)cc3)nc2c1', 'selectivity ratio', 2.5),
  ('Cc1ccc2oc(-c3ccc(NC(=O)CCl)c(C)c3)nc2c1', 'selectivity ratio', 0.11),
  ('Cc1cc(-c2nc3ccccc3o2)ccc1NC(=O)CN1CCN(CCCN(C)C)CC1', 'selectivity ratio', 1.52),
  ('Cc1cc(-c2nc3ccccc3o2)ccc1NC(=O)CN1CCN(CCN(C)C)CC1', 'selectivity ratio', 2.09),
  ('Cc1cc(-c2nc3cc(F)ccc3o2)ccc1NC(=O)CCl', 'selectivity ratio', 0.16),
  ('Cc1cc(-c2nc3cc(Cl)ccc3o2)ccc1NC(=O)CN1CCN(CCN(C)C)CC1', 'selectivity ratio', 0.79),
  ('Cc1cc(-c2nc3cc(F)ccc3o2)ccc1NC(=O)CN1CCN(CCN(C)C)CC1', 'selectivity ratio', 8.42),
  ('Cc1ccc2oc(-c3ccc(NC(=O)CN4CCN(CCN(C)C)CC4)c(C)c3)nc2c1', 'selectivity ratio', 0.51),
  ('Cc1cc(-c2nc3cc(Cl)ccc3o2)ccc1NC(=O)CN1CCN(CCCN(C)C)CC1', 'selectivity ratio', 2.73),
  ('Cc1ccc2oc(-c3ccc(NC(=O)CN4CCN(CCCN(C)C)CC4)c(C)c3)nc2c1', 'selectivity ratio', 0.87);
